The reader will find reported Selectivity E values listed item by item below.
tested on: acylase from Arthrobacter aurescens Ac5R; experiment: Enzymatic hydrolysis of racemic amides with highly purified acylase from Arthrobacter aurescens Ac5R; format: biochemical; conditions: enantioselectivity of the hydrolysis
Give the figure by itself; no unit, no explanation.

Worked set:
{"COMPOUND": "CC(=O)NC(C)c1ccc(C#N)cc1 (racemic) [Substrate 3a]", "Selectivity E": 320}
{"COMPOUND": "CC(=O)NC1CCOc2ccccc21 (racemic) [Substrate 6a]", "Selectivity E": 32}

Query: For the compound CC(=O)NC1CCc2ccccc21 (racemic) [Substrate 5a] , what Selectivity E is on record?
Response: 180

Query: Next entry: CC(=O)NC(C)c1cccc(C#N)c1 (racemic) [Substrate 2a]
Response: 60

Query: Next entry: CC(=O)NC(C)c1ccc2c(c1)OCO2 (racemic) [Substrate 8a]
Response: 60
